Molecular target: PreQ1 riboswitch
Assay: Binding affinity to SA sensor chip-immobilized Tte preQ1 riboswitch aptamer assessed as dissociation constant by SPR steady-state analysis
Format: nucleic-acid assay, Caldanaerobacter subterraneus, subsp. tengcongensis
Answer each item with its documented pKd.
// scale note: pKd = -log10(conc_M); give the bare number

get_value(item= `Nc1ncnc2c1ncn2[C@@H]1O[C@H](CNCC[C@H](N)C(=O)O)[C@@H](O)[C@H]1O` , readout=pKd) returns 4.68

Just so you know, measured pKd for C[S+](CC[C@H](N)C(=O)[O-])C[C@H]1O[C@@H](n2cnc3c(N)ncnc32)[C@H](O)[C@@H]1O (some centres undefined) [ADEMETIONINE] came out at 5.34

Consider Nc1ncnc2c1ncn2[C@@H]1O[C@H](CSCC[C@H](N)C(=O)O)[C@@H](O)[C@H]1O [S-ADENOSYLHOMOCYSTEINE] . Its measured pKd is 3.92

pKd measured on `NCCCNC[C@H]1O[C@@H](n2cnc3c(N)ncnc32)[C@H](O)[C@@H]1O` = 4.80

* * *

Biological target: PreQ1 riboswitch
Assay: Binding affinity to Tte preQ1 riboswitch aptamer assessed as dissociation constant by ITC analysis
Format: nucleic-acid assay, Caldanaerobacter subterraneus, subsp. tengcongensis
readout_label: pKd
// scale note: pKd = -log10(conc_M); give the bare number

Measured pKd, `NCCCNC[C@H]1O[C@@H](n2cnc3c(N)ncnc32)[C@H](O)[C@@H]1O` : 5.76

Looking up `Nc1ncnc2c1ncn2[C@@H]1O[C@H](CSCC[C@H](N)C(=O)O)[C@@H](O)[C@H]1O` , I see its pKd listed as 4.85

The measured pKd associated with `Nc1ncnc2c1ncn2[C@@H]1O[C@H](CNCC[C@H](N)C(=O)O)[C@@H](O)[C@H]1O` reads 5.48

Please fill in: pKd reported for C[S+](CC[C@H](N)C(=O)[O-])C[C@H]1O[C@@H](n2cnc3c(N)ncnc32)[C@H](O)[C@@H]1O (some centres undefined) = 6.17

* * *

Biological target: PreQ1 riboswitch
Assay: Binding affinity to Tte preQ1 riboswitch aptamer assessed as dissociation constant by MST analysis
Assay type: nucleic-acid assay, Caldanaerobacter subterraneus, subsp. tengcongensis
readout_label: Kd (µM)
# unit: µM | format: bare number

Measured Kd for this entry Nc1ncnc2c1ncn2[C@@H]1O[C@H](CSCC[C@H](N)C(=O)O)[C@@H](O)[C@H]1O [S-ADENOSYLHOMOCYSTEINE] on PreQ1 riboswitch: 34.4

Measured Kd (PreQ1 riboswitch), entry C[S+](CC[C@H](N)C(=O)[O-])C[C@H]1O[C@@H](n2cnc3c(N)ncnc32)[C@H](O)[C@@H]1O (some centres undefined) [ADEMETIONINE] : 0.718

Entry `NCCCNC[C@H]1O[C@@H](n2cnc3c(N)ncnc32)[C@H](O)[C@@H]1O` , tested on PreQ1 riboswitch, has a reported Kd of 9.75

Item `Nc1ncnc2c1ncn2[C@@H]1O[C@H](CNCC[C@H](N)C(=O)O)[C@@H](O)[C@H]1O` was tested on PreQ1 riboswitch; the reported Kd is 33.3

* * *

Biological target: S-adenosylmethionine-VI riboswitch
Experiment: Binding affinity to SA sensor chip-immobilized Bifidobacterium angulatum SAM-VI riboswitch aptamer assessed as dissociation constant by SPR analysis
Assay type: nucleic-acid assay
readout_label: pKd
Please express pKd as -log10 of the molar concentration.

The measured pKd associated with `NCCCNC[C@H]1O[C@@H](n2cnc3c(N)ncnc32)[C@H](O)[C@@H]1O` reads 5.51

* * *

Test system: PreQ1 riboswitch
Assay: Binding affinity to Tte preQ1 riboswitch aptamer assessed as change in entropy by ITC analysis
Format: nucleic-acid assay
Conditions: Caldanaerobacter subterraneus; subsp. tengcongensis
Would you kindly list -TdeltaS for each of these compounds?
The reply should be a number in kJ/mol, with the unit left off.

Please fill in: -TdeltaS reported for C[S+](CC[C@H](N)C(=O)[O-])C[C@H]1O[C@@H](n2cnc3c(N)ncnc32)[C@H](O)[C@@H]1O (some centres undefined) [ADEMETIONINE] = 25.5

Consider Nc1ncnc2c1ncn2[C@@H]1O[C@H](CSCC[C@H](N)C(=O)O)[C@@H](O)[C@H]1O [S-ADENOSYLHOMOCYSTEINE] . Its measured -TdeltaS is 6.8

For reference, reported -TdeltaS for `NCCCNC[C@H]1O[C@@H](n2cnc3c(N)ncnc32)[C@H](O)[C@@H]1O` stands at 54.5

Recorded -TdeltaS (compound `Nc1ncnc2c1ncn2[C@@H]1O[C@H](CNCC[C@H](N)C(=O)O)[C@@H](O)[C@H]1O` ): 64

* * *

Provide the reported K of each item.
System: PreQ1 riboswitch
Assay: Binding affinity to Tte preQ1 riboswitch aptamer assessed as binding constant (Koff) by ITC analysis
Assay type: nucleic-acid assay
Conditions: Caldanaerobacter subterraneus; subsp. tengcongensis

Lab book: K of C[S+](CC[C@H](N)C(=O)[O-])C[C@H]1O[C@@H](n2cnc3c(N)ncnc32)[C@H](O)[C@@H]1O (some centres undefined) noted as 1.42 10^-2/s

What the record says about `NCCCNC[C@H]1O[C@@H](n2cnc3c(N)ncnc32)[C@H](O)[C@@H]1O` : K is 2.38 10^-2/s

Entry `Nc1ncnc2c1ncn2[C@@H]1O[C@H](CSCC[C@H](N)C(=O)O)[C@@H](O)[C@H]1O` ; K = 4.58 10^-2/s

# compound `Nc1ncnc2c1ncn2[C@@H]1O[C@H](CNCC[C@H](N)C(=O)O)[C@@H](O)[C@H]1O` ; its K = 4.66 10^-2/s

* * *

Biological target: TAR RNA
Experiment: Binding affinity to Alexa Fluor 488-labeled HIV-1 TAR RNA assessed as dissociation constant by fluorescence based analysis
readout_label: Kd (µM)
Field format: number, assumed µM, no unit text.

`CC(=O)Nc1nc(-c2cccc(NC(=O)[C@H]3C[C@H](OC(=O)[C@@H](N)CCCN)[C@@H](COC(=O)[C@@H](N)CCCCN)O3)c2)cs1` yielded Kd of 8

* * *

Provide the recorded Kd for the entries that follow.
Molecular target: PreQ1 riboswitch
Assay: Binding affinity to SA sensor chip-immobilized Tte preQ1 riboswitch aptamer assessed as dissociation constant by SPR analysis
Format: nucleic-acid assay, Caldanaerobacter subterraneus, subsp. tengcongensis
Give the number; µM is assumed, so skip it.

Input `Nc1ncnc2c1ncn2[C@@H]1O[C@H](CNCC[C@H](N)C(=O)O)[C@@H](O)[C@H]1O` . Output Kd: 12.3

Entry C[S+](CC[C@H](N)C(=O)[O-])C[C@H]1O[C@@H](n2cnc3c(N)ncnc32)[C@H](O)[C@@H]1O (some centres undefined) ; Kd = 3.72

Looking up `NCCCNC[C@H]1O[C@@H](n2cnc3c(N)ncnc32)[C@H](O)[C@@H]1O` , I found its Kd recorded as 4.17

Input `Nc1ncnc2c1ncn2[C@@H]1O[C@H](CSCC[C@H](N)C(=O)O)[C@@H](O)[C@H]1O` . Output Kd: 150

* * *

Biological target: S-adenosylmethionine-VI riboswitch
Assay: Binding affinity to SA sensor chip-immobilized Bifidobacterium angulatum SAM-VI riboswitch aptamer assessed as dissociation constant by SPR steady-state analysis
Format: nucleic-acid assay
readout_label: Kd

Per the record, `NCCCNC[C@H]1O[C@@H](n2cnc3c(N)ncnc32)[C@H](O)[C@@H]1O` has Kd of 6.05 µM

* * *

Test system: PreQ1 riboswitch
Test: Binding affinity to Tte preQ1 riboswitch aptamer assessed as binding constant (Kon) by ITC analysis
Format: nucleic-acid assay
Settings: Caldanaerobacter subterraneus; subsp. tengcongensis
readout_label: K

The reported K of the compound `Nc1ncnc2c1ncn2[C@@H]1O[C@H](CNCC[C@H](N)C(=O)O)[C@@H](O)[C@H]1O` was 1.54 10^4/M/s

Per the record, C[S+](CC[C@H](N)C(=O)[O-])C[C@H]1O[C@@H](n2cnc3c(N)ncnc32)[C@H](O)[C@@H]1O (some centres undefined) [ADEMETIONINE] has K of 2.13 10^4/M/s

For reference, reported K for `NCCCNC[C@H]1O[C@@H](n2cnc3c(N)ncnc32)[C@H](O)[C@@H]1O` stands at 1.36 10^4/M/s

The compound Nc1ncnc2c1ncn2[C@@H]1O[C@H](CSCC[C@H](N)C(=O)O)[C@@H](O)[C@H]1O [S-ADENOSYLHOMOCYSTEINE] showed K equal to 3.57 10^3/M/s

* * *

Test system: PreQ1 riboswitch
Experiment: Binding affinity to SA sensor chip-immobilized Tte preQ1 riboswitch aptamer assessed as binding constant (Kon) by SPR analysis
Format: nucleic-acid assay
Settings: Caldanaerobacter subterraneus; subsp. tengcongensis
readout_label: K

# K of C[S+](CC[C@H](N)C(=O)[O-])C[C@H]1O[C@@H](n2cnc3c(N)ncnc32)[C@H](O)[C@@H]1O (some centres undefined) = 2.98 10^3/Ms

Data point: `NCCCNC[C@H]1O[C@@H](n2cnc3c(N)ncnc32)[C@H](O)[C@@H]1O` ; K = 1.28 10^4/Ms

What the record says about `Nc1ncnc2c1ncn2[C@@H]1O[C@H](CNCC[C@H](N)C(=O)O)[C@@H](O)[C@H]1O` : K is 2.94 10^3/Ms

Summary for this compound, `Nc1ncnc2c1ncn2[C@@H]1O[C@H](CSCC[C@H](N)C(=O)O)[C@@H](O)[C@H]1O` : K is 3.88 10^2/Ms
